Collected growth values appear next to each entry.
- Tested on: UO-31 renal
- Measurement protocol: NCI-60 one-dose screen, 48 h (100 = growth as untreated, 0 = no growth, -100 = all killed)
- Experimental parameters: 10 µM unless noted
- Experimental: Growth inhibition of the UO-31 human tumor cell line is measured as a screen for anti-cancer activity. Cells are grown in 96 well plates and exposed to the test compound for 48 hours. Compounds are tested at a single concentration, which is 10^-5 M for most compounds. The reported endpoint is percent growth (GI% or GIPRCNT), where numbers from 0 - 100% represent growth inhibition, and numbers from -100% - 0 represent cell death. For example, a value of 40 represents 60% growth inhibition. […]
The panel holds about 83,000 compounds, 20% with a hit somewhere; the sample as a whole holds those more often.

[
  {
    "Compound": "Cc1c(C2=NNC(c3ccc4c(c3)OCO4)C2)[n+]([O-])c2ccccc2[n+]1[O-] (stereo not given)",
    "growth (%)": 84.6
  },
  {
    "Compound": "CCN(CC)CCC(=O)c1cccc2ccccc12",
    "growth (%)": 87.6
  },
  {
    "Compound": "Cc1cc2c(c(=O)o1)C(c1ccc(OC(=O)N3CCOCC3)cc1)C(C#N)=C(N)O2 (stereo not given)",
    "growth (%)": 90.2
  },
  {
    "Compound": "Nc1c(C(=O)Nc2c(Cl)cccc2Cl)sc2nc3c(cc12)CCCCC3",
    "growth (%)": 63.9
  },
  {
    "Compound": "CCC1CCc2nc3sc(C(=O)Nc4ccccc4F)c(N)c3cc2C1 (stereo not given)",
    "growth (%)": 77.5
  }
]

----------
- Tested on: NCI-H522 lung
- Measurement protocol: NCI-60 one-dose screen, 48 h (100 = growth as untreated, 0 = no growth, -100 = all killed)
- Experimental parameters: 10 µM unless noted
About 83,000 compounds went through this panel and 20% of them were active in at least one assay; those are over-represented in the sample as a whole.
Exam item: assign true (1) to entries whose growth is below 20% and false (0) to entries at or above 20%. Note that a value of exactly 20% receives false (0).

[
  {
    "Compound": "O=C1c2ccccc2C(=O)c2c1oc1oc3c(c(=O)c21)c(=O)n(-c1ccccc1)c1ccccc31",
    "Label": "true (1)"
  },
  {
    "Compound": "O=S(=O)(NCCNc1cc(-c2cn(-c3ccccc3)nc2-c2ccccc2)ccn1)c1ccc(F)cc1",
    "Label": "false (0)"
  },
  {
    "Compound": "COc1cc(/C=C/C(=O)c2ccc(NC(=O)CN3CCN(c4cc5c(cc4F)c(=O)c(C(=O)O)cn5C4CC4)CC3)cc2)cc(OC)c1OC",
    "Label": "true (1)"
  },
  {
    "Compound": "NS(=O)(=O)c1ccc(NCC(=O)Nc2ccc(-c3nc4ccccc4s3)cc2)cc1",
    "Label": "true (1)"
  },
  {
    "Compound": "Nc1c(C(=O)Nc2cccc(C(F)(F)F)c2)sc2nc3c(cc12)C(O)CCC3 (stereo not given)",
    "Label": "true (1)"
  }
]

----------
- Test system: NCI-H460 lung
- Measurement protocol: NCI-60 one-dose screen, 48 h (100 = growth as untreated, 0 = no growth, -100 = all killed)
- Experimental parameters: 10 µM unless noted
About 83,000 compounds went through this panel and 20% of them were active in at least one assay; those are over-represented in the sample as a whole.
Property measured: growth (%)

[
  {
    "Molecule": "CCOC(=O)c1cc(/C(=N\\O)c2cc(OC)c(OC)c(OC)c2)n2cc(C)cc(C)c12",
    "Target or test system": "NCI-H460 lung",
    "Property measured": "growth",
    "Val": 4.9
  },
  {
    "Molecule": "COc1cc(NCCN=C(N)NC(N)=NC(C)C)c2ncccc2c1",
    "Target or test system": "NCI-H460 lung",
    "Property measured": "growth",
    "Val": 82.1
  },
  {
    "Molecule": "C=C1C(=O)O[C@H]2[C@H]1CC/C(COC(=O)NCc1cc(OC)cc(OC)c1)=C\\CC[C@@]1(C)O[C@@H]21",
    "Target or test system": "NCI-H460 lung",
    "Property measured": "growth",
    "Val": 34.9
  },
  {
    "Molecule": "COc1cc(-c2csc(NC(=O)c3cc(C(F)(F)F)cc(C(F)(F)F)c3)n2)cc(OC)c1OC",
    "Target or test system": "NCI-H460 lung",
    "Property measured": "growth",
    "Val": 13.8
  },
  {
    "Molecule": "CCSc1nnc(NC(=O)COc2ccc(Cl)cc2C)s1",
    "Target or test system": "NCI-H460 lung",
    "Property measured": "growth",
    "Val": 112
  },
  {
    "Molecule": "CC1(C)OC2COC3(C(=O)O)OC(C)(C)OC3C2O1 (centres undefined)",
    "Target or test system": "NCI-H460 lung",
    "Property measured": "growth",
    "Val": 103
  },
  {
    "Molecule": "COc1ccc(/C=C2\\C(=O)N(C(=O)c3csc(NC(C)=O)n3)N=C2C)cc1",
    "Target or test system": "NCI-H460 lung",
    "Property measured": "growth",
    "Val": 105
  },
  {
    "Molecule": "O=C(O)c1ccc(-n2cc(CNc3ccc(C(F)(F)F)cc3)c(-c3ccccc3)n2)cc1",
    "Target or test system": "NCI-H460 lung",
    "Property measured": "growth",
    "Val": 94.3
  },
  {
    "Molecule": "C=C1C(=O)O[C@H]2[C@H]1CC/C(Cn1cc(-c3ccsc3)nn1)=C\\CC[C@@]1(C)O[C@@H]21",
    "Target or test system": "NCI-H460 lung",
    "Property measured": "growth",
    "Val": 41
  }
]

These measurements were taken from PubChem BioAssay (NCI).
